Entry source: patent US6489341B1

Each record here notes measured pKi.
SYSTEM: non-selective α1 receptor from rat cerebral cortex
TEST_NAME: Binding affinity at non-selective α1 receptor
CONDITION_PARAMETERS: calculated inhibition constant, in parentheses
pKi: −log10 of the molar value.

COMPOUND	pKi
Fc1ccc(-n2cc(C3=CCNCC3)c3cc(Cl)ccc32)cc1 [Dehydro-Nor]	7.55
Fc1ccc(-n2cc(C3=CCNCC3)c3cc(Cl)ccc32)cc1 [Nor]	7.89
COc1cc2nc(N3CCN(C(=O)c4ccco4)CC3)nc(N)c2cc1OC [Prazosin, reference compound]	10.06
O=C1NCCN1CCN1CCC(c2cn(-c3ccc(F)cc3)c3ccc(Cl)cc23)CC1 [Sertindole, reference compound]	8.77
O=C1CNC(=O)N1CCN1CCC(c2cn(-c3ccc(F)cc3)c3ccc(Cl)cc23)CC1 [5-Oxo]	8.48
